biological target: Myc-tagged Bcl-xL (human, UniProt Q07817-1 1-233); test: FP
Sequence (Q07817 1-209): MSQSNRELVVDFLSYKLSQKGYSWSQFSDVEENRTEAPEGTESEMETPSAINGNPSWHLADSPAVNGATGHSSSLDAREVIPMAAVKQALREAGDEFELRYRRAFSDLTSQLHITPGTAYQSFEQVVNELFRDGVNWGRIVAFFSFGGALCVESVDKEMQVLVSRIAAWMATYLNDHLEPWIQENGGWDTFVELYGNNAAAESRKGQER
Below, each of the binders is paired with its reported Ki value.
READOUT: Ki (µM)

• Ac-QWVREIAAGLRLAADNVNAQLER-NH2 (designed binder) [FS1] = 2.4
• Ac-QWIREIAAGLRRFADILNAQVER-NH2 (designed binder) [FS3] = 0.32
